- MEASUREMENT NOTES: chemical genetic growth profiling, strain panel (AID 1159580);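 note: tested at 20 µM; growth read once vehicle control cultures reached saturation at 30 °C; 1 = growth at the plate median or of vehicle wells; lower values mean less growth of the strain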
- ASSAY CONDITIONS: S. cerevisiae deletion strains, growth OD, locus YIL125W, strain kgd1, hits give low values
In all, about 5,500 compounds went through this assay and about 2,000 (36%) were called active. Inconclusive results (about 18%) are left out. The list shows a part of the results.
OBSERVED PROPERTY: normalized growth
Write no unit; give the number alone.

Below, each entry is followed by its recorded normalized growth result.
{"MOLECULE": "CCOP(=S)(OCC)Oc1nc(Cl)c(Cl)cc1Cl", "normalized growth": 0.981}
{"MOLECULE": "Cc1cc(O)c2c(c1)Cc1cccc(O)c1C2=O", "normalized growth": 0.998}

The molecule O=C1c2c(O)cccc2Cc2cccc(O)c21 showed normalized growth equal to 1

The molecule Cc1cc(O)ccc1Cl showed normalized growth equal to 1.01

* * *

- MEASUREMENT NOTES: chemical genetic growth profiling, strain panel (AID 1159580)
- ASSAY CONDITIONS: S. cerevisiae deletion strains, growth OD, locus YML094W, strain GIM5, hits give low values
Screen size: about 5,500 compounds; about 2,000 (36%) were called active. Roughly 18% stayed inconclusive and do not appear here. The list shows a part of the results.
List of normalized growth values.
Write no unit; give the number alone.

Below, each entry is followed by its recorded normalized growth result.
{"COMPOUND": "Cc1cc(C2=CSC3=NCCN23)ccc1Cl", "normalized growth": 0.99}
{"COMPOUND": "CCOC(=O)c1sc(-c2ccc(C)cc2)nc1O", "normalized growth": 0.345}
{"COMPOUND": "Cc1cc(OCOc2ccc(Cl)c(C)c2)ccc1Cl", "normalized growth": 0.982}
{"COMPOUND": "O=[N+]([O-])c1ccccc1SCc1n[nH]c(=S)n1-c1cccc(C(F)(F)F)c1", "normalized growth": 0.967}
{"COMPOUND": "O=C(Nc1ccc(Br)cc1Cl)C(Cl)(Cl)Cl", "normalized growth": 1.04}
{"COMPOUND": "O=C(COc1ccc2c(c1)OCO2)N1CCN(c2ncc(C(F)(F)F)cc2Cl)CC1", "normalized growth": 0.964}

The compound S=c1[nH]nc(SCCSc2n[nH]c(=S)s2)s1 showed normalized growth equal to 0.988

The compound CCOC(=O)c1ccc2[nH]c(-c3ccccc3)cc(=O)c2c1 showed normalized growth equal to 0.997

The compound FC(F)(F)c1cccc(CSc2n[nH]c(=S)s2)c1 showed normalized growth equal to 0.914

* * *

- MEASUREMENT NOTES: chemical genetic growth profiling, strain panel (AID 1159580);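 note: tested at 20 µM; growth read once vehicle control cultures reached saturation at 30 °C; 1 = growth at the plate median or of vehicle wells; lower values mean less growth of the strain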
- ASSAY CONDITIONS: S. cerevisiae deletion strains, growth OD, locus YMR125W, strain sto1, hits give low values
Out of some 5,500 compounds screened, about 2,000 (36%) were called active. Roughly 18% stayed inconclusive and do not appear here. The list shows a part of the results.
List of normalized growth values.
Write no unit; give the number alone.

Below, each entry is followed by its recorded normalized growth result.
{"COMPOUND": "OC(CCN1CCCC1)(c1ccccc1)C1CCCCC1 (stereo unspecified)", "EXPERIMENTAL VALUE": 1}
{"COMPOUND": "Cc1ccc(S(=O)(=O)NC(=O)NN2CC3CCCC3C2)cc1 (stereo unspecified)", "EXPERIMENTAL VALUE": 0.966}
{"COMPOUND": "Cc1ccnc(NS(=O)(=O)c2ccc(N)cc2)n1", "EXPERIMENTAL VALUE": 0.995}
{"COMPOUND": "C#C[C@]1(O)CCC2C3CCC4=C(CCC(=O)C4)C3CC[C@@]21C (stereo partly specified)", "EXPERIMENTAL VALUE": 1.01}
{"COMPOUND": "OC(CCN1CCCCC1)(c1ccccc1)C1CCCCC1 (stereo unspecified)", "EXPERIMENTAL VALUE": 0.977}

The compound Nc1ccc(S(=O)(=O)c2ccc(N)cc2)cc1 showed normalized growth equal to 1

* * *

List of normalized growth values.
- MEASUREMENT NOTES: chemical genetic growth profiling, strain panel (AID 1159580);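 note: tested at 20 µM; growth read once vehicle control cultures reached saturation at 30 °C; 1 = growth at the plate median or of vehicle wells; lower values mean less growth of the strain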
- ASSAY CONDITIONS: S. cerevisiae deletion strains, growth OD, locus YDR054C, strain cdc34, hits give low values
Hit rate of the full screen: of about 5,500 compounds, about 2,000 (36%) were called active. Another 18% or so got no clear call; they are omitted. The list shows a part of the results.
Write no unit; give the number alone.

Below, each entry is followed by its recorded normalized growth result.
{"COMPOUND": "Fc1ccc(NC(=S)N2CCCN(Cc3ccc(Cl)cc3Cl)CC2)cc1", "normalized growth": 0.982}
{"COMPOUND": "O=[N+]([O-])c1ccc(S(=O)(=O)c2ccccc2)nc1S(=O)(=O)c1ccccc1", "normalized growth": 0.904}
{"COMPOUND": "COc1cccc(NC(=S)NC2CC(C)CC(C)(C)C2)c1 (stereo unspecified)", "normalized growth": 0.967}
{"COMPOUND": "S=C(NNC(=S)NC1CC2C=CC1C2)Nc1ccc(Br)c(Cl)c1 (stereo unspecified)", "normalized growth": 0.976}
{"COMPOUND": "N#Cc1c2ccccc2nc2ccccc12", "normalized growth": 0.781}

Consider the additional compound presented here.
The compound COc1ccc2nc3ccccc3c(N)c2c1 showed normalized growth equal to 0.625

* * *

List of normalized growth values.
- MEASUREMENT NOTES: chemical genetic growth profiling, strain panel (AID 1159580);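 note: tested at 20 µM; growth read once vehicle control cultures reached saturation at 30 °C; 1 = growth at the plate median or of vehicle wells; lower values mean less growth of the strain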
- ASSAY CONDITIONS: S. cerevisiae deletion strains, growth OD, locus YGL078C, strain dbp3, hits give low values
In all, about 5,500 compounds went through this assay and about 2,000 (36%) were called active. Roughly 18% stayed inconclusive and do not appear here. Some of the results follow.

{"MOLECULE": "CC1=CCC2C3(C)C1=CC(=O)OC3CC1C(C)(C)CC(O)C(O)C12C (configuration not stated)", "normalized growth": "1 (inactive)"}
{"MOLECULE": "COc1cc(N)c(Cl)cc1C(=O)NC1CCN(Cc2ccccc2)CC1", "normalized growth": "0.996 (inactive)"}
{"MOLECULE": "O=c1[nH]cc(F)c(=O)[nH]1", "normalized growth": "0.571 (active)"}
{"MOLECULE": "CC(C)CC(N(C)C)C1(c2ccc(Cl)cc2)CCC1 (configuration not stated)", "normalized growth": "1 (inactive)"}
{"MOLECULE": "N#CC(O[C@@H]1O[C@H](CO[C@@H]2O[C@H](CO)[C@@H](O)[C@H](O)[C@H]2O)[C@@H](O)[C@H](O)[C@H]1O)c1ccccc1 (some centres not stated)", "normalized growth": "0.989 (inactive)"}

The molecule Nc1ccccc1C(=O)CC(N)C(=O)O (configuration not stated) showed normalized growth equal to 0.989 (inactive)

The molecule C[C@@H]1CC[C@]2(C(=O)O)CC[C@]3(C)C(=CCC4[C@@]5(C)CC[C@H](O)C(C)(C)C5CC[C@]43C)C2[C@H]1C (some centres not stated) showed normalized growth equal to 0.985 (inactive)

The molecule CNCc1ccccc1 showed normalized growth equal to 0.999 (inactive)

The molecule CCOP(=S)(OCC)Oc1nc(Cl)c(Cl)cc1Cl showed normalized growth equal to 0.98 (inactive)

The molecule CC(C)=CCCC1(C)C=Cc2c(O)c3c(c(CC=C(C)C)c2O1)OC12C(=CC4CC1C(C)(C)OC2(C/C=C(/C)C(=O)O)C4O)C3=O (configuration not stated) showed normalized growth equal to 0.967 (inactive)

The molecule CC(=O)Nc1ccc(OCC(O)CNC(C)C)cc1 (configuration not stated) showed normalized growth equal to 0.999 (inactive)

The molecule COc1cc(C(=O)O[C@H]2CC[C@@]3(C)[C@@H]4CC[C@H]5[C@]6(O)C[C@H](O)[C@@]7(O)[C@@H](CN8C[C@@H](C)CC[C@H]8[C@@]7(C)O)[C@]6(O)C[C@@]53O[C@]24O)cc(OC)c1OC showed normalized growth equal to 0.999 (inactive)

The molecule O=C1c2c(O)cccc2Cc2cccc(O)c21 showed normalized growth equal to 0.992 (inactive)

The molecule C#C[C@]1(O)CCC2C3CCC4=CC(=O)CC[C@@H]4C3CC[C@@]21CC (some centres not stated) showed normalized growth equal to 0.989 (inactive)

The molecule C[C@H]1[C@H](C)CC[C@]2(CO)CC[C@]3(C)C(=CCC4[C@@]5(C)CC[C@H](O)C(C)(C)C5CC[C@]43C)[C@H]12 (some centres not stated) showed normalized growth equal to 1.01 (inactive)

The molecule COC(=O)Nc1nc2ccc(Sc3ccccc3)cc2[nH]1 showed normalized growth equal to 0.99 (inactive)

The molecule C[C@@H]1OC(O[C@H]2[C@H](OC(=O)[C@]34CCC(C)(C)CC3C3=CCC5[C@@]6(C)CC[C@H](OC7O[C@@H](C)[C@H](O[C@@H]8OC[C@@H](O)[C@H](O)[C@H]8O)[C@@H](O)[C@H]7O)C(C)(C)C6CC[C@@]5(C)[C@]3(C)CC4O)OC[C@H](O)[C@H]2O)[C@H](O)[C@H](O)[C@H]1O[C@@H]1O[C@H](CO)[C@@H](O)[C@H](O)[C@H]1O (some centres not stated) showed normalized growth equal to 0.929 (inactive)
